biological target: Cyclin-dependent kinase 4/cyclin D1 (Homo sapiens) (UniProt P11802+P24385); assay: Inhibitory activity against Cyclin D1-cyclin-dependent kinase 4; format: protein-complex assay; parameters: concentration or dose not given beside the values; details: concentration not given here
For each of the molecules below, state its inhibition.
Answers are plain numbers, in %.

Solved entries (count: 6):
O=C/C=C/c1cccnc1 = 54
O=C/C=C/c1ccccc1OCc1ccccc1 = 85
O=C/C=C/c1ccccc1OC(=O)c1ccc(F)cc1 = 25
COc1ccccc1C(=O)Oc1ccccc1/C=C/C=O = 23
O=C/C=C/c1cccc(OCc2ccc(Br)cc2)c1 = 88
COc1ccc(COc2ccccc2/C=C/C=O)cc1 = 59

Please state inhibition for every molecule in the list that follows.
1. Cc1ccc(COc2ccccc2/C=C/C=O)cc1
2. Cc1ccccc1COc1ccccc1/C=C/C=O
3. COc1ccc2c(COc3cccc(/C=C/C=O)c3)cc(=O)oc2c1
4. COc1ccccc1COc1cccc(/C=C/C=O)c1
5. COc1ccc(COc2cccc(/C=C/C=O)c2)cc1
6. COc1ccc(/C=C/C=O)cc1OCc1ccc(Br)cc1

Result:
1. 68
2. 70
3. 53
4. 65
5. 82
6. 58
